Dear all, I have gathered published pIC50 values for Serine/threonine-protein kinase mTOR (Homo sapiens, UniProt P42345); the list follows.
pIC50: −log10 of the molar value.
attributeMeasured: pIC50

cpdSmiles	operator	value
Cc1nn(C(C)C)cc1-n1c(=O)n(C)c2cnc3ccc(-c4cncc(C(O)(CF)CF)c4)cc3c21	=	6.86
COC1(Cn2c(=O)[nH]c3ncc(-c4cnc5[nH]ccc5c4)cc32)CCOCC1	>	7.30
CCNC(=O)Nc1ccc(-c2nc(N3CCOCC3)c3c(n2)C(C)(C)S(=O)(=O)C3)cc1	>	7.00
CCOc1ccc(-c2ccc3ncc4c(c3c2)n(-c2cn(CC(=O)N3CCOCC3)nc2C)c(=O)n4C)cn1	=	7.74
CNc1ccc(-c2ccc3ncc4c(c3c2)n(-c2cn(C(C)C)nc2C)c(=S)n4C)cn1	=	7.10
C[C@H]1CN(c2nc3c(N4CCOCC4)nc(-c4cnc(N)nc4)nc3n2CC(F)(F)F)CCN1S(C)(=O)=O	>	8.00
COc1ncc(-c2ccc3ncc(C#CC(C)(C)O)n3n2)cc1NS(=O)(=O)c1ccc(F)cc1	=	7.72
N#Cc1cccc(-c2nnc3cnc4ccc(-c5ccc6nc(N)sc6c5)cc4n23)c1	>	7.00
N#Cc1ccc(-c2ccc3ncc4ccc(=O)n(-c5cccc(C(F)(F)F)c5)c4c3n2)cn1	=	8.06
Cc1nn(C)cc1-n1c(=O)n(C)c2cnc3ccc(-c4cnc(N)c(C(=O)NC(C)C)c4)cc3c21	=	7.59
